Below is a list of entries, each paired with its recorded pIC50 value.
# target.of.assay: UniProt Q9BYF1
# Sequence (Q9BYF1 whole entry): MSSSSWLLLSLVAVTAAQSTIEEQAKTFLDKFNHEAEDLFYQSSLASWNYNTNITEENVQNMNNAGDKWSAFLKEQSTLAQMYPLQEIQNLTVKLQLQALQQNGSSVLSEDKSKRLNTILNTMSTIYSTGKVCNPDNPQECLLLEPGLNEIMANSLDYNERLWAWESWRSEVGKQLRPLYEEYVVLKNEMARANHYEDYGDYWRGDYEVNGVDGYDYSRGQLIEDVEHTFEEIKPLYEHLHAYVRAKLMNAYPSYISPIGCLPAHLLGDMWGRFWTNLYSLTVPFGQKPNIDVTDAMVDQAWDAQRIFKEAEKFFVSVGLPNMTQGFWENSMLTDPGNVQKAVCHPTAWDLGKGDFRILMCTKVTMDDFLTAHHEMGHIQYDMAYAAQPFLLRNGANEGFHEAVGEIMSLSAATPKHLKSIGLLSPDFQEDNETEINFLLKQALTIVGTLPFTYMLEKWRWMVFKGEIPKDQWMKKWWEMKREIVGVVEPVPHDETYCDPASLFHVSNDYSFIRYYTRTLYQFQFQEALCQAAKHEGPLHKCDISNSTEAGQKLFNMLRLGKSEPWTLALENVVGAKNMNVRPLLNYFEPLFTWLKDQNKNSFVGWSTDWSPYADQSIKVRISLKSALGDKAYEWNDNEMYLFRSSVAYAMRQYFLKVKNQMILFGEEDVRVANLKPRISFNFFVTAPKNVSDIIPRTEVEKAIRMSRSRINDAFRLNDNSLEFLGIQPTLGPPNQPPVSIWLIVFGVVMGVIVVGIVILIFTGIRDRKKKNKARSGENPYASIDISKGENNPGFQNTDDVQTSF
# assay.comment: Inhibition of recombinant SARS-COV2 His-tagged S-RBD binding to recombinant human ACE2 expressed in HEK293T cells incubated for 0.5 hrs by alpha screen assay
# Assay type: cell-based
Formally, pIC50 is defined as -log10 of the concentration c, with c in mol/L.

- O=c1c(O)c(-c2cc(O)c(O)c(O)c2)oc2cc(O)cc(O)c12: 5.00

Field: next compound
Given the entry O=C1C=C2CC3(O)COc4c(ccc(O)c4O)C3=C2C=C1O (configuration not stated) , report its measured pIC50.
5.00
